target: human recombinant histamine H2 receptor (Homo sapiens, UniProt P25021); construct: expressed in transfected cells; host or cells: Chinese hamster ovary (CHO) K1 cells; assay: Histamine H2 radioligand binding assay; conditions: [125I]Aminopotentidine specific binding, read-out: Percentage Inhibition, Histamine Binding (1 μM) H2
Sequence (P25021 whole entry): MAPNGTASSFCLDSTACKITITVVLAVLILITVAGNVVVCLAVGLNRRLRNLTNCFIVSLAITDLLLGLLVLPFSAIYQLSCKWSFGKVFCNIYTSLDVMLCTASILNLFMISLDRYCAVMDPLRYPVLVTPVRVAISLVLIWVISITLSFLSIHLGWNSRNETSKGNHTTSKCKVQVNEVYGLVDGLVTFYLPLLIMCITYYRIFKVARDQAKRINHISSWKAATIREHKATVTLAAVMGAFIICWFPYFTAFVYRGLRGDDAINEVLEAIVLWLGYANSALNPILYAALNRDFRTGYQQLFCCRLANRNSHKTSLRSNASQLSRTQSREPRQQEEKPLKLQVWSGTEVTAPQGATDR

| COMPOUND | inhibition at 1 µM |
| --- | --- |
| Cc1ccc2c(c1)c1c(n2CC(C)(O)c2ccc(Cl)cc2)CN2CCC1C2 (stereo not drawn) | 10% |
| Cc1ccc2c(c1)c1c(n2CC(=O)N2CCC(C)CC2)CN2CCC1C2 (stereo not drawn) | -4% |
| C/C(=C\n1c2c(c3cc(C)ccc31)C1CCN(C2)C1)c1ccc(F)cc1 (stereo not drawn) | 15% |
| Cc1ccc2c(c1)c1c(n2CC(C)(O)c2ccc(F)cc2F)CN2CCC1C2 (stereo not drawn) | 4% |
| COc1ccc(/C(C)=C/n2c3c(c4cc(C)ccc42)C2CCN(C3)C2)cc1F (stereo not drawn) | 24% |
| Cc1ccc2c(c1)c1c(n2CCc2ccc(C(F)(F)F)nc2)CN2CCC1C2 (stereo not drawn) | 0% |
| C=C(Cn1c2c(c3cc(C)ccc31)C1CCN(C2)C1)c1ccc(F)cc1 (stereo not drawn) | 25% |
| Cc1ccc(/C=C/n2c3c(c4cc(C)ccc42)C2CCN(C3)C2)cc1 (stereo not drawn) | 6% |
| Cc1ccc2c(c1)c1c(n2CC(=O)N2CCCCC2)CN2CCC1C2 (stereo not drawn) | -4% |

* * *

Target: human recombinant adrenergic α2A receptor (Homo sapiens)
Construct: expressed in transfected cells; host or cells: insect Sf9 cells
Sequence (P08913 whole entry): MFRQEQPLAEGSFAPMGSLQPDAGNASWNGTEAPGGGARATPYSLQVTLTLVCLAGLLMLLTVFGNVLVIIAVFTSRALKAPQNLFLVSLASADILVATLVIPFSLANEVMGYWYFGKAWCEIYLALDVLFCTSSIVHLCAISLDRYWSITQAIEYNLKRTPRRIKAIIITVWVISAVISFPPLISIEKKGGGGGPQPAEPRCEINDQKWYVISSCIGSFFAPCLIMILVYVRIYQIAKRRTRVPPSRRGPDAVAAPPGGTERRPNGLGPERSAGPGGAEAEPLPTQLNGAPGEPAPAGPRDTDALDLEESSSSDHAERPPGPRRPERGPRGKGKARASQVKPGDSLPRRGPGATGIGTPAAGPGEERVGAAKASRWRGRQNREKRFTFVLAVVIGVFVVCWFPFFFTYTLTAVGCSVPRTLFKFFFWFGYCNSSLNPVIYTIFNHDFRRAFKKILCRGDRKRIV
Assay: Adrenergic α2A radioligand binding assay
Conditions: 1 μM; [3H]MK-912 specific binding; read-out: Percent Inhibition of ligand binding, Adrenergic (1 μM ligand conc.) α2A
Experimental: To evaluate in radioligand binding assays the activity of compounds of the invention, human recombinant adrenergic α2A receptor expressed in insect Sf9 cells [Uhlen, S et al. J. Pharmacol. Exp. Ther. (1994), 271:1558] in a modified Tris-HCl buffer (50 mM Tris-HCl, pH 7.4, 12.5 mM MgCl2, 2 mM EDTA) was used. […] Receptor proteins were filtered and washed, the filters were then counted to determine [^3H]MK-912 specifically bound. […]
List of inhibition at 1 µM values.
VALUE_TYPE: inhibition at 1 µM (%)

| MOLECULE | TARGET_OR_SYSTEM | READING |
| --- | --- | --- |
| COc1ccc(C(O)Cn2c3c(c4cc(C)ccc42)C2CCN(C3)C2)cc1F (stereo not shown) [Compound 6] | human recombinant adrenergic α2A receptor (Homo sapiens) | 23 |
| C=C(Cn1c2c(c3cc(C)ccc31)C1CCN(C2)C1)c1ccc(F)cc1 (stereo not shown) [Compound 3] | human recombinant adrenergic α2A receptor (Homo sapiens) | 93 |
| Cc1ccc2c(c1)c1c(n2CC(=O)N2CCOCC2)CN2CCC1C2 (stereo not shown) [Compound 26] | human recombinant adrenergic α2A receptor (Homo sapiens) | -4 |
| Cc1ccc2c(c1)c1c(n2CCc2ccccn2)CN2CCC1C2 (stereo not shown) [Compound 11] | human recombinant adrenergic α2A receptor (Homo sapiens) | -15 |
| C/C(=C\n1c2c(c3cc(C)ccc31)C1CCN(C2)C1)c1ccc(Cl)cc1 (stereo not shown) [Compound 32] | human recombinant adrenergic α2A receptor (Homo sapiens) | 96 |
| Cc1ccc(C(C)(O)Cn2c3c(c4cc(C)ccc42)C2CCN(C3)C2)cc1 (stereo not shown) [Compound 20] | human recombinant adrenergic α2A receptor (Homo sapiens) | 28 |
| Cc1ccc2c(c1)c1c(n2CC(C)(O)c2ccc(F)c(Cl)c2)CN2CCC1C2 (stereo not shown) [Compound 18] | human recombinant adrenergic α2A receptor (Homo sapiens) | 30 |
